System: 621-102 (TSC2-deficient);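 note: immortalized renal angiomyolipoma cells stably carrying empty vector or TSC2, dosed in 384-well plates in DMEM, viability normalized to vehicle-treated wells within each plate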
measurementNotes: relative viability vs DMSO; higher = less cytotoxic
conditionSummary: 10 µM; serum: 10% FBS; 72 h
valueKind: relative viability (%)
Respond numerically; units are % and should not be typed.

Exam item: Which relative viability is listed for Nc1ccccc1NC(=O)c1ccc(CNC(=O)OCc2cccnc2)cc1 ?
Marked response: 64.1

Exam item: # repeat for COc1cc([C@@H]2c3cc4c(cc3[C@@H](O[C@@H]3O[C@@H]5CO[C@@H](C)O[C@H]5[C@H](O)[C@H]3O)[C@H]3COC(=O)[C@H]23)OCO4)cc(OC)c1O [Etoposide (Etopophos)]
Marked response: 54.6

Exam item: Do the same for OCCn1cc(-c2ccc3c(c2)CC/C3=N\O)c(-c2ccncc2)n1 please
Marked response: 92.1
